Measured IC50 at 72 h values are reported for all entries that follow.
# EXPERIMENT NOTES: Cytotoxicity against mouse L929 cells assessed as reduction in cell viability measured after 72 hrs by MTT assay
# Format: toxicity, cell-based
READOUT TYPE: IC50 at 72 h (µM)

>>> endpoint_value("Cc1ccc(C(C)C)c(OCc2cn(CCCN3C(=O)C(=O)c4cc(Cl)ccc43)nn2)c1")
125
>>> endpoint_value("Cc1ccc(C(C)C)c(OCc2cn(CCCN3C(=O)C(=O)c4cc(C)ccc43)nn2)c1")
125
>>> endpoint_value("Cc1ccc(C(C)C)c(OCc2cn(CCCN3C(=O)C(=O)c4ccccc43)nn2)c1")
125
>>> endpoint_value("Cc1ccc(C(C)C)c(OCc2cn(CCCN3C(=O)C(=O)c4cc(F)ccc43)nn2)c1")
31.2
>>> endpoint_value("Cc1ccc(C(C)C)c(OCc2cn(CCN3C(=O)C(=O)c4ccccc43)nn2)c1")
250
>>> endpoint_value("CC(=O)O[C@H]1C(=O)[C@@]2(C)[C@H]([C@H](OC(=O)c3ccccc3)[C@]3(O)C[C@H](OC(=O)[C@H](O)[C@@H](NC(=O)c4ccccc4)c4ccccc4)C(C)=C1C3(C)C)[C@]1(OC(C)=O)CO[C@@H]1C[C@@H]2O [PACLITAXEL]")
0.0625
